Test: Solubility of DMPA in solvents
Reported Solubility values follow for various compounds

- Compound: "CN1CCCC1=O [NMP, N-methyl pyrrolidone, reference compound]"
  Solubility: "54.0 g/100 g of Solvent"
- Compound: "CCN1CCCCCC1=O"
  Solubility: "20.0 g/100 g of Solvent"
- Compound: "CN1CCCCCC1=O"
  Solubility: "27.5 g/100 g of Solvent"
- Compound: "CCCCN1CCCCCC1=O"
  Solubility: "10.0 g/100 g of Solvent"

====

Assay: Color of pigmented and complete PUDs (ISO 7724-2)
Type: physicochemical
Settings: White background
// reported Color (White background) b* for each item listed
Endpoint Name: Color (White background) b*

- Compound: "CN1CCCCCC1=O"
  Test Result: 3.32
- Compound: "CN1CCCC1=O [NMP, N-methyl pyrrolidone, reference compound]"
  Test Result: 3.02
- Compound: "CCCCN1CCCC1=O [NBP, N-butyl pyrrolidone, reference compound]"
  Test Result: 3.32
- Compound: "COC(=O)CCCCC(=O)N(C)C [Ester amide]"
  Test Result: 3.29
- Compound: "CCN1CCCCCC1=O"
  Test Result: 3.24

Origin of the recorded values: patent US12024584B2
